# measured on: Toll-like receptor 4 (Homo sapiens) (UniProt O00206)
# Sequence (O00206 whole entry, looked up): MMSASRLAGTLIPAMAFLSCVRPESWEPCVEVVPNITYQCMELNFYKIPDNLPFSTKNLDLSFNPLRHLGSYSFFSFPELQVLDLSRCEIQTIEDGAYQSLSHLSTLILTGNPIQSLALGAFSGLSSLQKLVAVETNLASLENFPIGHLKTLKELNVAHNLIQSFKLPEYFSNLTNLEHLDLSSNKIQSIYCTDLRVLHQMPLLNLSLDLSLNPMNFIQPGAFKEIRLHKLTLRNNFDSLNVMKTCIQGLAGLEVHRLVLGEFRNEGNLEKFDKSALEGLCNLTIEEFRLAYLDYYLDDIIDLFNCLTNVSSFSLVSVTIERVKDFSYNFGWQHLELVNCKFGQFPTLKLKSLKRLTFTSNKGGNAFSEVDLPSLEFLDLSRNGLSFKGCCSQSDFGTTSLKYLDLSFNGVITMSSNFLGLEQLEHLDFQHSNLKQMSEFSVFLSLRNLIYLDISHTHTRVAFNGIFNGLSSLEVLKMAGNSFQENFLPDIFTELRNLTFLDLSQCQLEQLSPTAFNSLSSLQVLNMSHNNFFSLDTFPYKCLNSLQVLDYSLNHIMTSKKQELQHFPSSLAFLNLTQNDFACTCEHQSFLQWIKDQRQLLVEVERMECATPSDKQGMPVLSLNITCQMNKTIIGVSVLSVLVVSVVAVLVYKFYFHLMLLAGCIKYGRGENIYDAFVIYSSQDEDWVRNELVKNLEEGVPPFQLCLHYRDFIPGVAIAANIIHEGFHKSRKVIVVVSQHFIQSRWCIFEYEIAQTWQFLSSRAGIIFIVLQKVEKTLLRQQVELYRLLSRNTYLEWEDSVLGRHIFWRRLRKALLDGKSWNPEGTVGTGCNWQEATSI
# experimental protocol: inhibitors of human TLR4-MyD88 binding (AID 811)
# measurement context: Cell-based TLR4-MyD88 binding inhibition assay; at 10 µM; hits give high values
In all, about 16,000 compounds went through this assay and about 10 (0.06%) were called active. The sample holds actives, similar compounds and a random draw of the others, so the mix is not that of the screen.
measured quantity: inhibition (%)
Give the number; % is assumed, so skip it.

// solved cases for inhibition follow
> print(dat)
                                   compound  measured.quantity  value.observed
1                      OCCNc1nc2ccccc2[nH]1         inhibition           -3.29
2                   CCOC(=O)Cn1cc(Cl)ccc1=O         inhibition           -0.56
3  Cc1cc(C)nc(N/C=C(\C#N)S(=O)(=O)c2ccc(Cl)cc2)n1         inhibition             -13

Consider the additional compound presented here.
What does the record list as inhibition for Cn1cccc1-c1n[nH]c(=S)n1-c1ccc(Cl)cc1Cl ?
9.51
